Values were extracted from PubChem BioAssay (NCI).

test system: SW-620 colon; assay: NCI tumour cell line growth inhibition, 48 h
TGI for assorted compounds

Some solved entries appear below for comparison.
{"compound": "O=C1CC2CC=C[C@H]3c4cc5c(cc4C(=O)N1C23)OCO5 (stereo partly drawn)", "target_entity": "SW-620 colon", "TGI": "> 50 µM"}
{"compound": "COC(=O)C1Cc2ccc(C)cc2C1=O (stereo not drawn)", "target_entity": "SW-620 colon", "TGI": "> 100 µM"}
{"compound": "Cc1ccc2c(c1)NC(c1ccc(C(=O)O)cc1)c1cccn1-2 (stereo not drawn)", "target_entity": "SW-620 colon", "TGI": "> 100 µM"}
{"compound": "CCOP(=O)(OCC)C1C(=O)O[C@H]2CCCC[C@@H]12 (stereo partly drawn)", "target_entity": "SW-620 colon", "TGI": "> 100 µM"}
{"compound": "CC(Cl)(/C=C/Cl)C(Cl)/C=C/C(Cl)(CCl)CBr (stereo not drawn)", "target_entity": "SW-620 colon", "TGI": "8 µM"}
{"compound": "CC1=C(C(=O)Nc2ccccc2)C(c2ccc3c(c2)OCO3)C(C(=O)Nc2ccccc2)=C(C)N1", "target_entity": "SW-620 colon", "TGI": "12.3 µM"}
{"compound": "Cc1nc(-c2ccccc2)c(C)n2c1nc1ccccc12", "target_entity": "SW-620 colon", "TGI": "> 100 µM"}
{"compound": "O=C(CCCc1c[nH]c2ccccc12)NC1CC(=O)c2c(Br)sc(Br)c21 (stereo not drawn)", "target_entity": "SW-620 colon", "TGI": "41 µM"}
{"compound": "COC(=O)[C@]12CC[C@@H](C)[C@H](C)[C@@H]1C1=CC[C@@H]3[C@@]4(C)CC(=O)[C@H](O)[C@@]5(C)COC(=C45)C[C@@]3(C)[C@]1(C)CC2", "target_entity": "SW-620 colon", "TGI": "33.6 µM"}
{"compound": "CC(=O)OC1/C(=C/c2ccc([N+](=O)[O-])cc2)C[C@H]2[C@@H]3CC=C4C[C@@H](OC(C)=O)CC[C@]4(C)[C@H]3CC[C@]12C (stereo partly drawn)", "target_entity": "SW-620 colon", "TGI": "> 100 µM"}

Please report TGI for the following compound: "COc1ccccc1/C=C1\Sc2scc(-c3cccc([N+](=O)[O-])c3)[n+]2C1=O" > 36.4 µM

Supply TGI value. Item: CC(Cc1ccc(Cl)cc1Cl)NO (stereo not drawn) > 100 µM

Please list TGI recorded for the compound "O=C(O)CN(c1ccc(Cl)cc1)S(=O)(=O)c1ccccc1" > 100 µM

# return recorded TGI for entry "CCOC(=O)N1CCN(Cc2cc(=O)n3cc(C)ccc3n2)CC1" > 100 µM

Give the reported value of TGI for this record: "O=S(=O)(O)CS(=O)(=O)OCCCl" > 100 µM

Note down TGI recorded for "O=c1[nH]c2cc(C(F)(F)F)ccc2nc1Cc1ccccc1" > 100 µM

Give the reported value of TGI for this record: COC(=O)C1Cc2c([nH]c3ccccc23)C(c2cccc(O)c2)N1 (stereo not drawn) 60.8 µM

Report TGI for "COc1ccccc1C(=O)/C=C/c1cc2cccc(OC)c2[nH]c1=O" 1.56 µM

Hello, please tell me recorded TGI for this one: O=C1C2=C(c3ccccc31)C(c1cccc(Cl)c1)NC(=S)N2 (stereo not drawn) > 100 µM

Respond only with TGI recorded for "CC(C)(C)c1cc(C(=O)/C=C/c2ccc(O)c(O)c2O)cc(C(C)(C)C)c1O" 17.9 µM

---

test system: MOLT-4 leukemia; assay: NCI tumour cell line growth inhibition, 48 h
Where TGI equals or exceeds 40 µM, the correct label is Met; where it does not, the label is Not met.

Known results for compounds:
{"compound": "Cc1nc2c(o1)C(=O)c1ccccc1C2=NC1CCCCC1N (stereo not given)", "target_entity": "MOLT-4 leukemia", "classification": "Not met"}
{"compound": "Cc1c2c(c(C)n1-c1ccccc1)C(=O)N(CCSC(=N)N)C2=O", "target_entity": "MOLT-4 leukemia", "classification": "Met"}
{"compound": "Clc1ccccc1/C=C/c1nsc(/C=C/c2ccccc2Cl)n1", "target_entity": "MOLT-4 leukemia", "classification": "Met"}
{"compound": "Cc1c(C(=O)CSc2nc3ccc([N+](=O)[O-])cc3[nH]2)c(=O)n(-c2ccccc2)n1C", "target_entity": "MOLT-4 leukemia", "classification": "Met"}
{"compound": "COc1ccc(/C=C2\\CN(C(=O)CCN3CCC(=NO)CC3)C/C(=C\\c3ccc(OC)cc3)C2=O)cc1", "target_entity": "MOLT-4 leukemia", "classification": "Not met"}
{"compound": "CNC(=O)OCc1nc(SC(C)C)n(C)c1COC(=O)NC", "target_entity": "MOLT-4 leukemia", "classification": "Met"}

Kindly determine if TGI recorded for "Cc1c(NC(=O)C(=O)N=NC(=O)c2ccncc2)c(O)c2ccccc2c1O" is above or exactly 40 µM. Met

Tell me whether TGI is at least 40 µM here: CCCCCCCCCCCCCCCCCCNC(=O)[C@H]1CSC(c2ccc(OC)c(F)c2)N1 (stereo not given in full) Not met

For this compound, is measured TGI 40 µM or higher? N#Cc1ccccc1NC(=O)C(=O)C(C(=O)c1ccccc1-c1ccccc1)C1OC(=O)c2ccccc21 (stereo not given) Met

---

system: HT29 colon; assay: NCI tumour cell line growth inhibition, 48 h
endpoint_label: TGI

Field: example entries. Status: answers known.
{"line_notation": "COc1c(OC(C)=O)ccc(/C=C2\\N=C(C)OC2=O)c1[N+](=O)[O-]", "target_entity": "HT29 colon", "TGI": "> 100 µM"}
{"line_notation": "CCOC(=O)/N=c1\\ss/c(=N\\C(=S)N(C)C)n1-c1ccccc1", "target_entity": "HT29 colon", "TGI": "> 100 µM"}
{"line_notation": "Cc1ccc(-c2c(C#N)c(N)nc(N3CCOCC3)c2C#N)o1", "target_entity": "HT29 colon", "TGI": "> 100 µM"}

Please examine the following record next.
Fill in TGI for record "O=[N+]([O-])c1ccc(-c2ccc(/C=N/n3c(-c4ccc(Cl)cc4)n[nH]c3=S)o2)cc1" > 55.2 µM

---

We begin with a simple list: items and their reported TGI.
test system: M14 melanoma; assay: NCI tumour cell line growth inhibition, 48 h

Observe how each entry below is paired with its result.
{"compound": "CC(=O)OC1/C(=C/c2ccc([N+](=O)[O-])cc2)C[C@H]2[C@@H]3CC=C4C[C@@H](OC(C)=O)CC[C@]4(C)[C@H]3CC[C@]12C (stereo partly drawn)", "target_entity": "M14 melanoma", "TGI": "> 100 µM"}
{"compound": "CC(O)c1c2c(cc3c1CC1(C3)Cc3cc4c(c(C(C)O)c3C1)CCC4)CCC2 (stereo not drawn)", "target_entity": "M14 melanoma", "TGI": "35.2 µM"}

Kindly consider the entry below.
Specify TGI for O=C(O)C(CS)NCc1c2ccccc2[n+]([O-])c2ccccc12 (stereo not drawn) , system M14 melanoma. > 100 µM

---

test system: DU-145 prostate; assay: NCI tumour cell line growth inhibition, 48 h
Outcome label depends on TGI relative to 4 µM: at/above gives Satisfied, below gives Not satisfied.

Please check the record "O=C1c2ccccc2-c2c1c1ccccc1c(=O)n2CCO" and state if its TGI is at or above 4 µM. Satisfied

Assess whether reported TGI for NC(N)=NC(CC(=O)O)c1ccccc1 (configuration not stated) sits at 4 µM or higher. Satisfied

Given CC(=O)Oc1ccc(N2C(=O)C3c4[nH]c5ccccc5c4C4CCC(C(C)(C)C)CC4C3C2=O)cc1 (configuration not stated) , state whether its TGI is at least 4 µM. Satisfied

Can "COc1cc(O)c(C(=O)/C=C/c2ccccc2)c(OC)c1" be said to have TGI at or above 4 µM? Satisfied

Is it the case that "COc1cc[nH]c1/C=C1\C(=O)Nc2ccc(F)c(C#C[C@@H](O)[C@@H](N)[C@@H](C)O)c21" has TGI reaching or exceeding 4 µM? Not satisfied

Entry CC(=O)N1c2ccccc2C(C)(C)OC1C(Cl)(Cl)Cl (configuration not stated) : is its TGI no less than 4 µM? Satisfied

Does TGI meet or surpass 4 µM for "Cc1ccc(-c2c(C#N)c(N)nc(N3CCOCC3)c2C#N)o1" ? Satisfied

Please indicate if the recorded TGI for CC(CC(=O)CO[C@H]1[C@H](O)[C@@H](O)[C@@H](O)[C@@H]2NC(=O)c3c(cc4c(c3O)OCO4)[C@H]21)OC1OC(CO)C(O)C(O)C1O (some centres not stated) meets or exceeds 4 µM. Not satisfied

Form field: TGI at least 4 µM? Entry: "Cc1ccc(-c2sc(-c3ccc(C)cc3)c3c2C2CCC3C2)cc1" Satisfied

# bool: TGI of "COc1ccc(/C=C2\CN(C(=O)CCN3CCC(=NO)CC3)C/C(=C\c3ccc(OC)cc3)C2=O)cc1" >= 4 µM Not satisfied

Has "Cc1c2c(c(C)n1-c1ccccc1)C(=O)N(CCSC(=N)N)C2=O" a recorded TGI greater than or equal to 4 µM? Satisfied

Does TGI meet or surpass 4 µM for O=C1C(C(O)(C(F)(F)Cl)C(F)(F)Cl)CCC1C(O)(C(F)(F)Cl)C(F)(F)Cl (configuration not stated) ? Satisfied

Assess whether reported TGI for "COc1cc(C(=O)O)c([N+](=O)[O-])c(OC)c1OC" sits at 4 µM or higher. Satisfied

Could you tell me if the measured TGI of "COc1cc2cc(Oc3ccc(NC(=O)Nc4cccc(C(F)(F)F)c4)cc3)c(C)nc2cc1OCCN1CCCCC1" reaches 4 µM or more? Not satisfied

Determine whether measured TGI meets or exceeds 4 µM for O=C(CCCc1c[nH]c2ccccc12)NC1CC(=O)c2c(Br)sc(Br)c21 (configuration not stated) Satisfied

Please indicate if the recorded TGI for Nc1cccc2c1C(=O)N(C1CCC(=O)NC1=O)C2=O (configuration not stated) meets or exceeds 4 µM. Satisfied

Can "O=C1C=C[C@]2(C[C@@H](c3cccc(C(F)(F)F)c3)O[C@@H](c3cccc(C(F)(F)F)c3)O2)O1" be said to have TGI at or above 4 µM? Satisfied
